Test system: DU-145 prostate
Assay summary: NCI-60 one-dose screen, 48 h (100 = growth as untreated, 0 = no growth, -100 = all killed)
Experimental parameters: 10 µM
About 83,000 compounds went through this panel and 20% of them were active in at least one assay; those are over-represented in the sample as a whole.
Metric: growth (%)
Give your result in % as a bare value.

A selection of reference data follows.
INSERT INTO measurements (record_smiles, reported_measurement) VALUES
  ('Clc1cc(Cl)c(Cl)c(-c2nc(-c3cccnc3)cs2)c1', 37.2),
  ('COCc1cc2c(cc1Br)OCO2', 112),
  ('COc1ccc(-n2nnc3c(sc4ccccc43)c2=O)cc1', 60.2),
  ('CCCCCCN=C(N)CCCCCCCCCCC(N)=NCCCCCC', 58.5),
  ('CCc1ccc(Nc2cc(C)nc3nc(C)nn23)cc1', 29.5);

// recorded growth for CCOC(=O)Nc1ccc2c(c1)C(=O)N(CC)c1ccccc1O2 : 7.48

// recorded growth for Cc1nc2scc(-c3ccc(Cl)cc3)n2c(=O)c1CCN1CCOCC1 : 115

// recorded growth for Cc1ccc(-c2cc(-c3cccc(Nc4ccnc5cc(Cl)ccc45)c3)nc3nc(N)[nH]c(=O)c23)cc1 : 105

// recorded growth for O=C(CCCC(=O)N/N=C/c1cc(Cl)ccc1O)N/N=C\c1cc(Cl)ccc1O : 42.9
